- Tested on: NCI-H226 lung
- method_summary: NCI tumour cell line growth inhibition, 48 h
endpoint_name: GI50

Below, each entry is followed by its recorded GI50 result.
compound	value_observed
Cc1ccc(C(=O)N(CCCN)C(c2oc3cc(Cl)ccc3c(=O)c2Cc2ccccc2)C(C)C)cc1 (stereo not given)	1.47 µM
COc1cc2cc(Oc3ccc(NC(=O)Nc4ccc(Cl)c(C(F)(F)F)c4)cc3)c(C)nc2cc1OCCN1CCOCC1	1.86 µM
CC/C=C\C[C@H](F)C/C=C1/C(=O)C=C[C@@H]1C/C=C\CCCC(=O)O	8.8 µM
COC(=O)Nc1nc2ccc(Oc3ccc(NC(=O)Nc4cc(C(F)(F)F)ccc4F)cc3)cc2s1	> 25 µM
Cc1cc2c(cc1Cl)SC1=NN(C)S(=O)N1S2(=O)=O (stereo not given)	> 100 µM

Query: Recall and state the measured GI50 for `CCCn1c(=S)sc2c1nc(C)n1c(Nc3ccccc3)nnc21` .
Reply: 4.98 µM

Query: # return recorded GI50 for entry Nc1nccc(-c2c(-c3ccc(F)cc3)ncn2C2CCC(O)CC2)n1 (stereo not given)
Reply: 5.45 µM

Query: State its GI50: `O=C(O)/C=C(\c1nc2ccc([N+](=O)[O-])cc2[nH]1)c1cc(Cl)ccc1O`
Reply: 2.32 µM

Query: Write down GI50 measured for item `CS(=O)(=O)c1ccc(-n2nc(C(F)(F)F)cc2OC2CCCC2)cc1`
Reply: 34 µM

Query: // Input: `N#CC(C#N)=C1Nc2ccccc2S1` . Output its GI50 only.
Reply: 27.3 µM

---

- Test system: MDA-MB-231 breast
- method_summary: NCI tumour cell line growth inhibition, 48 h
TGI: recorded values

Use these answered entries as a reference point.
compound	TGI
CC(C)NC(NC(C)C)=C(S(=O)(=O)C(F)(F)C(F)(F)C(F)(F)C(F)(F)F)S(=O)(=O)C(F)(F)C(F)(F)C(F)(F)C(F)(F)F	> 100 µM
CC[C@@]1(c2ccccc2)C2=C(CC(C)(C)CC2=O)Nc2[nH]ncc21	> 100 µM
CCOC(=O)C1(Cc2ccccc2)C=CN(C(=O)c2ccccc2)C=C1	> 100 µM
CC(=O)N(C(C)=O)n1c(Cc2ccc(Cl)cc2)n[nH]c1=O	> 100 µM
COC(=O)C1=C(O)C(C(=O)OC)[C@]2(O)[C@H](C(=O)OC)[C@H]1C[C@@H](c1ccc(Cl)cc1)[C@H]2C(=O)OC (some centres undefined)	37.6 µM

Query: Please supply the value of reported TGI for the item COC(=O)/C=C(/C=C1/C(C#N)=C(N)N(c2ccc(Cl)cc2)C1(C)/C(=C/C(=O)OC)C(=O)OC)C(=O)OC (centres undefined)
Reply: > 100 µM

Query: Give the measured TGI for `Cc1cc(S(=O)(=O)Nc2nc(N)n(-c3ccccn3)n2)c(S)cc1Cl`
Reply: > 100 µM

Query: Identify the reported TGI for the following entry. `COc1cc(C(=O)CBr)c(OC)cc1C`
Reply: > 100 µM

Query: Specify measured TGI for `O=C(O)C(=Cc1ccc(-c2ccccc2)cc1)C(=O)O` .
Reply: 38.5 µM

---

- Test system: A498 renal
- method_summary: NCI tumour cell line growth inhibition, 48 h
endpoint_name: GI50

compound	value_observed
Nc1nccc(-c2c(-c3ccc(F)cc3)ncn2C2CCC(O)CC2)n1 (stereo not drawn)	3290 nM

Query: State GI50 on A498 renal. Entry: `CC/C=C\C[C@H](F)C/C=C1/C(=O)C=C[C@@H]1C/C=C\CCCC(=O)O`
Reply: 5590 nM

Query: Provide measured GI50 on A498 renal for `CCCCCCCCn1ccc2cc(NC(=O)Cn3cc(CN4CCCC4)nn3)ccc21` please.
Reply: 1700 nM

Query: Report GI50 from A498 renal testing of CC1(C)OC2=C(CC1Br)C(=O)C(=O)c1ccccc12 (stereo not drawn)
Reply: 1430 nM

Query: # return GI50 for Cc1cc(-c2cnn3c(NCC4CC(C)(O)C4)cc(Oc4cccnc4)nc23)ccc1C(=O)NC1CC1 (stereo not drawn) , test system: A498 renal
Reply: 435 nM

Query: Quote GI50 with test system A498 renal for `N#CC(C#N)=C1Nc2ccccc2S1`
Reply: 26600 nM

Query: Please indicate recorded GI50 of `O=C(Nc1ccncc1)C(=O)c1cn(S(=O)(=O)c2cccc(F)c2)c2ccccc12` measured with A498 renal.
Reply: 13400 nM

---

- Tested on: SN12C renal
- method_summary: NCI tumour cell line growth inhibition, 48 h
endpoint_name: TGI

molecule	TGI
O=S(=O)(O)C1=C2Sc3ccccc3N=C2c2ccccc2C1	26.8 µM
Cc1cc2c(cc1Cl)SC1=NN(C)S(=O)N1S2(=O)=O (configuration not stated)	> 100 µM
O=C(CCN(C(=O)O)S(=O)(=O)c1ccc(NC(=O)c2ccccc2)cc1)NC1CCCCC1	> 100 µM
O=C1c2ccccc2C(=O)N1CCc1ncc[nH]1	> 100 µM

Query: // fetch TGI given entry `c1ccc(-c2nc3ccccc3n3c(CN4CCCCC4)nnc23)cc1`
Reply: > 100 µM

Query: State its TGI for this molecule: CCCCCCCCCCCCN(CC(O)C(O)C(OC1OC(CO)C(O)C(O)C1O)C(O)CO)C(=O)CCCCCCCCCCC (configuration not stated)
Reply: 45.4 µM

Query: Note down TGI recorded for Nc1nccc(-c2c(-c3ccc(F)cc3)ncn2C2CCC(O)CC2)n1 (configuration not stated)
Reply: > 25 µM

Query: Identify measured TGI corresponding to `CC(C)(CO)N1CCN(C(=S)Nc2ccccc2)CC1`
Reply: > 100 µM

Query: Identify measured TGI associated with `CC(=O)c1sc2c(c1OC(=O)c1ccco1)c(=O)n(-c1ccccc1)c(=S)n2-c1ccccc1`
Reply: > 100 µM

Query: Please list TGI recorded for the molecule `N#CC(C#N)=C1Nc2ccccc2S1`
Reply: > 100 µM

---

- System: T-47D breast
- method_summary: NCI tumour cell line growth inhibition, 48 h; in the data active = GI50 below about 0.43 µM; inactive = the rest
Respond with a class label; see True for active, False for inactive

compound	classification
CCOC1Oc2ccc(C)cc2C(=O)/C1=C\Nc1ccc(C(N)=O)cc1 (configuration not stated)	False
CC/C=C\C[C@H](F)C/C=C1/C(=O)C=C[C@@H]1C/C=C\CCCC(=O)O	False
COc1ccc2c(c1)CCCN2c1c2ccccc2nc2ccccc12	False
Nc1nc(N(Cc2ccccc2)c2ccccc2)c2cn[nH]c2n1	False
O=C(CCc1nnc2sc(-c3ccc(Cl)cc3Cl)nn12)c1nc2ccccc2[nH]1	False

Query: What was the test verdict on `O=C(Nc1ccncc1)C(=O)c1cn(S(=O)(=O)c2cccc(F)c2)c2ccccc12` ?
Reply: False

Query: Could you check what this test reported for `COc1ccc2c(c1)C(=O)c1c-2n(CCCn2ccnc2)c(=O)c2cc([N+](=O)[O-])ccc12` ?
Reply: True

---

- System: MOLT-4 leukemia
- method_summary: NCI tumour cell line growth inhibition, 48 h; in the data active = GI50 below about 0.43 µM; inactive = the rest
Output constraint: value belongs to active, inactive

For orientation, consider the following solved cases.
compound	classification
CC1(C)OC2=C(CC1Br)C(=O)C(=O)c1ccccc12 (centres undefined)	inactive
COC(=O)Nc1nc2ccc(Oc3ccc(NC(=O)Nc4cc(C(F)(F)F)ccc4F)cc3)cc2s1	inactive
C#CCNC(=O)c1cccc2c1cc(C)n2-c1nc2c(c(NCc3ccccc3)n1)CCCC2	active
O=C(CC1C(=O)NN(c2ccc(Br)cc2)C1=O)c1cc(O)ccc1O (centres undefined)	inactive
C=C(C[C@](O)(C(=O)/C=C/c1ccc(Cl)cc1)C(=O)OC)c1ccccc1	inactive

Query: What is the recorded call for this compound in the test? O=C1CCC(N2C(=O)c3ccccc3C2=O)C(=O)N1CO (centres undefined)
Reply: inactive

Query: Short answer needed: outcome of this test for `CC/C=C\C[C@@H](O)C/C=C1/C(=O)C=C[C@H]1C/C=C\CCCC(=O)OC` ?
Reply: inactive

Query: Any idea what this test logged for `Cc1ccc2c(c1)Sc1c(ccc3ccccc13)N2` ?
Reply: inactive

Query: Record lookup: outcome of this test for `CCCCCCCC[C@@H](O)CC(=O)N[C@@H](CC(N)=O)C(=O)N[C@@H](CCC(N)=O)C(=O)N[C@@H](CC(=O)c1cc(C)cc(O)c1C(=O)c1c(O)cccc1O)CC(C)C` ?
Reply: active

---

- Tested on: MALME-3M melanoma
- method_summary: NCI tumour cell line growth inhibition, 48 h
endpoint_name: TGI

Query: Give TGI for `NC(=O)COC(=O)c1c(Cl)nc2sccn12` tested on MALME-3M melanoma.
Reply: > 100 µM

Query: Give TGI for this entry on MALME-3M melanoma: `Ic1ccc2c(c1)N(c1ccccc1)c1cc(N=c3ccc4nc5ccc(I)cc5n(-c5ccccc5)c-4c3)ccc1N2`
Reply: > 100 µM

Query: Return reported TGI for target or system MALME-3M melanoma, item Cc1cc2c(cc1Cl)SC1=NN(C)S(=O)N1S2(=O)=O (centres undefined) .
Reply: > 100 µM

Query: Recall the reported TGI of COC(=O)c1cc2c(cc1CC1Cc3cc4c(cc3C1=O)CCC4)CCC2 (centres undefined) when tested on MALME-3M melanoma.
Reply: > 100 µM

Query: Look up MALME-3M melanoma data: TGI of `O=C1CSSCC(=O)Nc2ccccc2N1` , then report it.
Reply: > 100 µM

Query: State TGI (MALME-3M melanoma) of C[C@@H]1OC(=O)N2CCCC(=C3SCCCS3)C12 (some centres undefined) .
Reply: > 100 µM

Query: Check MALME-3M melanoma data and give TGI for `Cn1c2ccccc2c2ccc3c(c21)C(=O)c1ccccc1C3=O` .
Reply: 24.5 µM
